IC50 overview
tested on: HT-29; test: Cytotoxicity against human HT-29 cells after 96 hrs by SRB assay; type: functional, cell-based; conditions: Homo sapiens, HT-29, 96 h; read-out: IC50
// units = µM; emit number, no label

Below are worked cases with known answers.
>  <Chem Smiles>
C=C1C[C@]2(C)[C@H]3CC[C@@H]4[C@H]5[C@H](C(=C)C)CC[C@]5(C(=O)N5CCSCC5)CC[C@@]4(C)[C@]3(C)CC[C@H]2C(C)(C)C1=O

>  <Experimental Value>
1.6

$$$$
>  <Chem Smiles>
C=C(C)[C@@H]1CC[C@]2(C(=O)OC)CC[C@]3(C)[C@H](CC[C@@H]4[C@@]5(C)C[C@@H](CS(=O)(=O)CCO)C(=O)C(C)(C)[C@@H]5CC[C@]43C)[C@@H]12

>  <Experimental Value>
2.5

$$$$
>  <Chem Smiles>
C=C/C=C1/C[C@]2(C)[C@H]3CC[C@@H]4[C@H]5[C@H](C(=C)C)CC[C@]5(C(=O)OC)CC[C@@]4(C)[C@]3(C)CC[C@H]2C(C)(C)C1=O

>  <Experimental Value>
10.9

$$$$
>  <Chem Smiles>
C=C1C[C@]2(C)[C@H]3CC[C@@H]4[C@H]5[C@H](C(=C)C)CC[C@]5(C(=O)O)CC[C@@]4(C)[C@]3(C)CC[C@H]2C(C)(C)C1=O

>  <Experimental Value>
0.4

$$$$
>  <Chem Smiles>
C=C1C[C@]2(C)[C@H]3CC[C@@H]4[C@H]5[C@H](C(=C)C)CC[C@]5(C(=O)OC)CC[C@@]4(C)[C@]3(C)CC[C@H]2C(C)(C)C1=O

>  <Experimental Value>
5.9

$$$$
>  <Chem Smiles>
C=C(C)[C@@H]1CC[C@]2(C(=O)OC)CC[C@]3(C)[C@H](CC[C@@H]4[C@@]5(C)C[C@@H](CSCCO)C(=O)C(C)(C)[C@@H]5CC[C@]43C)[C@@H]12

>  <Experimental Value>
1.4

$$$$

Shift focus to the following entry.
## Input Record lookup: for HT-29, what IC50 belongs to C=C1C[C@]2(C)[C@H]3CC[C@@H]4[C@H]5[C@H](C(=C)C)CC[C@]5(C=O)CC[C@@]4(C)[C@]3(C)CC[C@H]2C(C)(C)C1=O ?
## Output 7.1

###

assay: Solubility of the compound in water; assay type: physicochemical; details: buffer

>  <Chem Smiles>
C=C1C[C@]2(C)[C@H]3CC[C@@H]4[C@H]5[C@H](C(=C)C)CC[C@]5(C(=O)O)CC[C@@]4(C)[C@]3(C)CC[C@H]2C(C)(C)C1=O

>  <solubility>
Insoluble

$$$$
>  <Chem Smiles>
C=C(C)[C@@H]1CC[C@]2(C(=O)OC)CC[C@]3(C)[C@H](CC[C@@H]4[C@@]5(C)C/C(=C\C)C(=O)C(C)(C)[C@@H]5CC[C@]43C)[C@@H]12

>  <solubility>
Insoluble

$$$$
>  <Chem Smiles>
C=C(C)[C@@H]1CC[C@]2(C(=O)OC)CC[C@]3(C)[C@H](CC[C@@H]4[C@@]5(C)C[C@@H](CSCCO)C(=O)C(C)(C)[C@@H]5CC[C@]43C)[C@@H]12

>  <solubility>
Insoluble

$$$$

###

experiment: Solubility of the compound in water; type: physicochemical; details: buffer
Readout Type: solubility

>  <Chem Smiles>
C=C/C=C1/C[C@]2(C)[C@H]3CC[C@@H]4[C@H]5[C@H](C(=C)C)CC[C@]5(C(=O)OC)CC[C@@]4(C)[C@]3(C)CC[C@H]2C(C)(C)C1=O

>  <solubility>
Insoluble

$$$$
>  <Chem Smiles>
C=C1C[C@]2(C)[C@H]3CC[C@@H]4[C@H]5[C@H](C(=C)C)CC[C@]5(C=O)CC[C@@]4(C)[C@]3(C)CC[C@H]2C(C)(C)C1=O

>  <solubility>
Insoluble

$$$$
>  <Chem Smiles>
C=C(C)[C@@H]1CC[C@]2(C(=O)OC)CC[C@]3(C)[C@H](CC[C@@H]4[C@@]5(C)C[C@@H](CN(C)C)C(=O)C(C)(C)[C@@H]5CC[C@]43C)[C@@H]12

>  <solubility>
Insoluble

$$$$
>  <Chem Smiles>
C=C(C)[C@@H]1CC[C@]2(C(=O)OC)CC[C@]3(C)[C@H](CC[C@@H]4[C@@]5(C)C[C@@H](CC[N+](=O)[O-])C(=O)C(C)(C)[C@@H]5CC[C@]43C)[C@@H]12

>  <solubility>
Insoluble

$$$$
>  <Chem Smiles>
C=C(C)[C@@H]1CC[C@]2(C(=O)OC)CC[C@]3(C)[C@H](CC[C@@H]4[C@@]5(C)C[C@@]6(CCN=N6)C(=O)C(C)(C)[C@@H]5CC[C@]43C)[C@@H]12

>  <solubility>
Insoluble

$$$$
>  <Chem Smiles>
C=C(C)[C@@H]1CC[C@]2(C(=O)OC)CC[C@]3(C)[C@H](CC[C@@H]4[C@@]5(C)C[C@@H](CS(=O)(=O)CCO)C(=O)C(C)(C)[C@@H]5CC[C@]43C)[C@@H]12

>  <solubility>
Insoluble

$$$$

## Input Fill in: solubility of C=C(C)[C@@H]1CC[C@]2(C=O)CC[C@]3(C)[C@H](CC[C@@H]4[C@@]5(C)CCC(=O)C(C)(C)[C@@H]5CC[C@]43C)[C@@H]12 is ___
## Output Insoluble
